Test system: Mus musculus
Assay notes: Neurotoxicity in ip dosed CF1 albino mouse after 0.5 hr by rotarod test
Type: toxicity, organism-based
Assay setup: in vivo
Listed next: entries and their corresponding Activity.
The answer is to be given in mg/kg; state only the numeric part.

Query (compound): "CCC1(CC)CC(=O)N(Nc2ccccc2Cl)C1=O" ; field requested: Activity 100

---
Query (compound): "CCC1(CC)CC(=O)N(Nc2ccccc2)C1=O" ; field requested: Activity 300

Query (compound): CCCC1(C)CC(=O)N(Nc2ccc(Cl)cc2)C1=O (stereo unspecified) ; field requested: Activity 100

Query (compound): CCCC1(C)CC(=O)N(Nc2ccc(Br)cc2)C1=O (stereo unspecified) ; field requested: Activity 300

Query (compound): O=C1C2CCCCC2C(=O)N1Nc1ccc(Cl)cc1Cl (stereo unspecified) ; field requested: Activity 300

Query (compound): "CCC1(CC)CC(=O)N(Nc2ccc(Cl)cc2Cl)C1=O" ; field requested: Activity 100

----------
Listed next: entries and their corresponding Activity.
System: Mus musculus
Assay notes: Neurotoxicity in ip dosed CF1 albino mouse after 0.5 hr by rotarod test
Type: toxicity, organism-based
Assay setup: in vivo
The answer is to be given in mg/kg; state only the numeric part.

Reported Activity for Mus musculus, given CCCCC1(C)CC(=O)N(Nc2ccccc2Cl)C1=O (stereo not drawn) ? 300

Reported Activity for Mus musculus, given CCC1(C)CC(=O)N(Nc2ccc(Cl)cc2Cl)C1=O (stereo not drawn) ? 30

Reported Activity for Mus musculus, given "CC1(C)CC(=O)N(Nc2ccccc2)C1=O" ? 100

Reported Activity for Mus musculus, given "CC1(C)CC(=O)N(Nc2ccccc2Cl)C1=O" ? 30

Reported Activity for Mus musculus, given CCCCC1(C)CC(=O)N(Nc2ccc(Br)cc2)C1=O (stereo not drawn) ? 300

Reported Activity for Mus musculus, given Cc1ccc(NN2C(=O)C3CCCCC3C2=O)cc1 (stereo not drawn) ? 300

Here's the next entry for you.
Reported Activity for Mus musculus, given CCC1(C)CC(=O)N(Nc2cccc(Cl)c2)C1=O (stereo not drawn) ? 300

----------
Assay notes: Lipophilicity, log kw of compound by RP-HPLC
Format: physicochemical
Reported endpoint: log K
Lab note: jot the number down without any unit.

Use these answered entries as a reference point.
Query (compound): CCCC1(C)CC(=O)N(Nc2cccc(Cl)c2)C1=O (stereo not drawn) ; field requested: log K 2.401

Query (compound): CCC1(C)CC(=O)N(Nc2ccccc2Cl)C1=O (stereo not drawn) ; field requested: log K 2.029

Query (compound): O=C1C2CCCCC2C(=O)N1Nc1ccccc1 (stereo not drawn) ; field requested: log K 1.937

Query (compound): CCC1(C)CC(=O)N(Nc2ccc(Br)cc2)C1=O (stereo not drawn) ; field requested: log K 2.024

Here's the next entry for you.
Query (compound): CCC1(C)CC(=O)N(Nc2ccccc2C)C1=O (stereo not drawn) ; field requested: log K 1.864

----------
Tested on: Rattus norvegicus
Assay notes: Anticonvulsant activity in Sprague-Dawley rat assessed as protection against seizure at 30 mg/kg, po after 0.25 hr by maximal electroshock test
Type: functional
The source made the active and inactive calls. The calls are words filed in the database; no cut-off is given here.
Reported endpoint: Activity

Query (molecule): "CC1(C)CC(=O)N(Nc2ccccc2)C1=O" ; field requested: Activity 25%

Query (molecule): CCC1(C)CC(=O)N(Nc2ccc(Br)cc2)C1=O (stereo not given) ; field requested: Activity 75%

Query (molecule): CCC1(C)CC(=O)N(Nc2ccc(Cl)cc2Cl)C1=O (stereo not given) ; field requested: Activity inactive

Query (molecule): CCC1(C)CC(=O)N(Nc2ccc(Cl)cc2)C1=O (stereo not given) ; field requested: Activity inactive

---
Query (molecule): O=C1C2CCCCC2C(=O)N1Nc1ccccc1 (stereo not given) ; field requested: Activity inactive
